- target desc: UniProtKB P50579
- Sequence (P50579 2-478): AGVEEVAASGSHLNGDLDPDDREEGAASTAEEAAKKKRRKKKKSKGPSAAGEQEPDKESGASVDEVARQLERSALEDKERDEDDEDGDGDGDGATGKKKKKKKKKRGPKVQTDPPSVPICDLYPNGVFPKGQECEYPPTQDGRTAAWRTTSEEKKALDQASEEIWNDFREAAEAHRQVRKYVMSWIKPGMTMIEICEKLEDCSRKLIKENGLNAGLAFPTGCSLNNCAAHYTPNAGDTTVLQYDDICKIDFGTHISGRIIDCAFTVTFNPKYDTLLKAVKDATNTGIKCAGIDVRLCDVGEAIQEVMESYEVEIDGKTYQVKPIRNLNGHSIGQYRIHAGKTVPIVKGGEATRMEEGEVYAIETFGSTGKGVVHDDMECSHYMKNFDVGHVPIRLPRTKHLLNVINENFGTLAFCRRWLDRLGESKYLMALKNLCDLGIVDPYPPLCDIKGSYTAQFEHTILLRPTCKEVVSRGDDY
Square brackets hold non-standard residues; d marks the D form. Peptide text beside a SMILES is read from it. NMeY = CN[C@@H](Cc1ccc(O)cc1)C(=O)O; NMeT = CN[C@H](C(=O)O)[C@@H](C)O; NMeL = CN[C@@H](CC(C)C)C(=O)O
quantity kind: IC50

# annotated cases, reported IC50 shown
1) CNC(Cc1ccc(O)cc1)C(=O)N(C)C1C(=O)N(C)C(CC(C)C)C(=O)OC(C)C(N(C)C(=O)C(Cc2ccc(O)cc2)N(C)C)C(=O)N(C)C(CC(C)C)C(=O)OC1C (stereo not shown) : > 2 mM
2) CC(C)CC1C(=O)OC(C)C(N(C)C(=O)C(Cc2ccc(O)cc2)N(C)C)C(=O)N(C)C(CC(C)C)C(=O)OC(C)C(N(C)C(=O)C(Cc2ccc(O)cc2)N(C)C)C(=O)N1C (stereo not shown) : > 2 mM
3) CN[C@@H](Cc1ccc(O)cc1)C(=O)N(C)[C@H](C(=O)N(C)[C@@H](CC(C)C)C(=O)OC)[C@@H](C)OC [NMe-Monomer] (H-[NMeY]-[NMeT](Me)-[NMeL]-OMe) : > 2 mM

Task: In one line, give reported IC50 of the entry CO[C@@H]1[C@H](OC(=O)NC(=O)CCl)CC[C@]2(CO2)[C@H]1[C@@]1(C)O[C@@H]1CC=C(C)C .
Output: 0.00069 mM

---

Square brackets hold non-standard residues; d marks the D form. Peptide text beside a SMILES is read from it. NMeY = CN[C@@H](Cc1ccc(O)cc1)C(=O)O; NMeT = CN[C@H](C(=O)O)[C@@H](C)O; NMeL = CN[C@@H](CC(C)C)C(=O)O
This section lists IC50 readings for HsMetAP1 (Homo sapiens, UniProt P53582).

1) CC(C)CC1C(=O)OC(C)C(N(C)C(=O)C(Cc2ccc(O)cc2)N(C)C)C(=O)N(C)C(CC(C)C)C(=O)OC(C)C(N(C)C(=O)C(Cc2ccc(O)cc2)N(C)C)C(=O)N1C (stereo not shown) : > 2000 µM

Batch request: IC50 per item, same order as input.
1. CO[C@@H]1[C@H](OC(=O)NC(=O)CCl)CC[C@]2(CO2)[C@H]1[C@@]1(C)O[C@@H]1CC=C(C)C
2. CNC(Cc1ccc(O)cc1)C(=O)N(C)C1C(=O)N(C)C(CC(C)C)C(=O)OC(C)C(N(C)C(=O)C(Cc2ccc(O)cc2)N(C)C)C(=O)N(C)C(CC(C)C)C(=O)OC1C (stereo not shown)

Output:
> 2000 µM
49.7 µM

Task: Specify IC50 for CN[C@@H](Cc1ccc(O)cc1)C(=O)N(C)[C@H](C(=O)N(C)[C@@H](CC(C)C)C(=O)OC)[C@@H](C)OC [NMe-Monomer] (H-[NMeY]-[NMeT](Me)-[NMeL]-OMe) and stop.
Output: > 2000 µM

---

- target desc: EcMetAP (Escherichia coli)
- experiment description: biochemical
pIC50: −log10 of the molar value.
quantity kind: pIC50

Consider the following illustrative entries.
1. CNC(Cc1ccc(O)cc1)C(=O)N(C)C1C(=O)N(C)C(CC(C)C)C(=O)OC(C)C(N(C)C(=O)C(Cc2ccc(O)cc2)N(C)C)C(=O)N(C)C(CC(C)C)C(=O)OC1C (stereo not shown) [metapeptin B] : 6.33
2. CC(C)CC1C(=O)OC(C)C(N(C)C(=O)C(Cc2ccc(O)cc2)N(C)C)C(=O)N(C)C(CC(C)C)C(=O)OC(C)C(N(C)C(=O)C(Cc2ccc(O)cc2)N(C)C)C(=O)N1C (stereo not shown) [metapeptin A] : < 2.70
3. CCCCCCCCCCCCCC(=O)O[C@H]1CC[C@H](NC(=O)[C@H](OC)[C@H](O)[C@@H](O)[C@H](O)/C=C/C(C)C)C(=O)N(C)C1 [bengamide B] : < 2.70

Moving on to another compound below.
Task: Recall and state the measured pIC50 for CO[C@@H]1[C@H](OC(=O)NC(=O)CCl)CC[C@]2(CO2)[C@H]1[C@@]1(C)O[C@@H]1CC=C(C)C [TNP-470] .
Output: < 2.70

---

- target desc: EcMetAP (Escherichia coli)
- Sequence (P0AE18 2-264): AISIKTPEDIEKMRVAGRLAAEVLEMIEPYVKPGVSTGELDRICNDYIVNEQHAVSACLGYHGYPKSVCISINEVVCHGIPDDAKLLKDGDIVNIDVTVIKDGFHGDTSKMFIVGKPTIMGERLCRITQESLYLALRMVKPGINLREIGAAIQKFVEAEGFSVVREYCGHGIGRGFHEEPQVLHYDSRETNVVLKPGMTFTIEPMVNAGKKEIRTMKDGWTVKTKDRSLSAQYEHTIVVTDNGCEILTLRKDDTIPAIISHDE
- experiment description: coupled fluorogenic Met-Gly-Pro-AMC / DPPIV assay
- Assay type: biochemical
pIC50: −log10 of the molar value.
quantity kind: pIC50

Task: Give reported pIC50 value for CNC(Cc1ccc(O)cc1)C(=O)N(C)C1C(=O)N(C)C(CC(C)C)C(=O)OC(C)C(N(C)C(=O)C(Cc2ccc(O)cc2)N(C)C)C(=O)N(C)C(CC(C)C)C(=O)OC1C (stereo not shown)
Output: ~6.30
